The measured values listed here are drawn from a melting point compilation (Tetko et al.; mined from patent text by program, amines drawn as free bases though some values may be those of a salt).

Each entry below lists one item and its recorded melting point value.

### Prompt Using the record for `COC(=O)CCc1cc2cc(Cl)ccc2n1S(=O)(=O)c1ccc(C(C)C)cc1` , report its melting point.
### Response 90 to 94 °C

### Prompt Using the record for COC(=O)CC1CC(c2ccc(C(=N)NC(=O)OC(C)(C)C)cn2)=NO1 (stereo not given) , report its melting point.
### Response 143 °C

### Prompt Using the record for CON(C(=O)c1cn(C)nc1C(F)F)C(C)Cc1c(Cl)cc(Cl)cc1Cl (stereo not given) , report its melting point.
### Response 110 to 112 °C

### Prompt Using the record for `COc1ccc2oc(C(N)=O)c(OCc3ccccc3)c2c1` , report its melting point.
### Response 70 to 72 °C

### Prompt Using the record for `CCCCCCC(=N)NC(=S)Nc1ccc(Br)cc1Br` , report its melting point.
### Response 86 to 88 °C

* * *

readout type: melting point

These recorded examples may help you get a feel for the data.
CCn1c(COc2ccc(CC3SC(=O)NC3=O)cc2)nc2cccnc21 (stereo not given)    210 to 212 °C
COC(=O)C1C2C=CC(C2)C1NC(=O)OCc1ccccc1 (stereo not given)    73 to 76 °C
CCn1ncc2c3noc(-c4cccc(OC)c4)c3cnc21    170 to 171 °C
CC1(C)[C@@H](C(=O)Nc2ccncc2)[C@@H]1c1ccc(S(N)(=O)=O)cc1 (relative stereo)    270 to 274 °C

Kindly consider the entry below.
### Prompt Using the record for `O=c1c2c(n(-c3ccccc3)c3ncccc13)CCC2` , report its melting point.
### Response 235 to 237 °C

* * *

Each entry below lists one item and its recorded melting point value.

COc1ccccc1N1CCN(CCCNC(=O)c2cccc3c2OC(C2CCCCC2)CC3)CC1 (stereo not given)    79 to 83 °C
O=C1OCc2c1cc1ccc3c(c1c2-c1ccc2ccccc2c1)OCO3    224 to 226 °C
OCCON=Cc1ccc(-c2ccccc2)nc1    100 to 101 °C
CC(CF)(CF)C(O)C(Oc1ccc(Cl)cc1)n1cncn1 (stereo not given)    97 to 102 °C
O=C1CC(c2cccc(-n3ccnc3)c2)=Nc2cc(CO)c(C#Cc3ccccc3)cc2N1    227 °C

### Prompt Using the record for `CCCCNC(=O)Oc1ccc(Oc2ccc([N+](=O)[O-])cc2)cc1` , report its melting point.
### Response 122 to 124 °C

### Prompt Using the record for `CCCCCCCCCCNC(=O)Nc1ccc(N(C)C)cc1C(=O)NCC1CCN(C(c2ccccc2)c2ccccc2)CC1` , report its melting point.
### Response 145 to 147 °C

### Prompt Using the record for `Cn1cc(Sc2ccccc2)c(=O)c(-c2cccc(C(F)(F)F)c2)c1` , report its melting point.
### Response 164 to 165 °C

### Prompt Using the record for `COc1ccc2c(c1)oc(=O)c1c3ccc(OC)cc3sc21` , report its melting point.
### Response 220 to 221 °C

* * *

Each entry below lists one item and its recorded melting point value.

These recorded examples may help you get a feel for the data.
FC(F)(F)c1cccc2c1SSSSS2    55 to 60 °C
CCOC(=O)c1nnnn1Cc1ccccc1[N+](=O)[O-]    90 to 92 °C
O=C(C#Cc1ccc(CN2CCCCC2)cc1)Nc1ccc(-c2ccc(Cl)cc2)cc1    180 °C
COc1nccc2cc(S(N)(=O)=O)oc12    204 to 206 °C
CC(C)C1(c2ccccc2)OC(C(=O)OCc2cccnc2)=CC1=O (configuration not stated)    109 to 110 °C

### Prompt Using the record for COc1ccc2c(c1)N(c1ccc(F)cc1)C(=O)C2(CCc1nnn[nH]1)NC(=O)c1cc2ccccc2cn1 (configuration not stated) , report its melting point.
### Response 154 to 160 °C

### Prompt Using the record for `O=C(O)c1cc(S)c(Cl)cc1Cl` , report its melting point.
### Response 254 to 255 °C

### Prompt Using the record for O=C(c1ccc([N+](=O)[O-])o1)N1CCN(CC(O)COc2cccc3[nH]c4ccccc4c23)CC1 (configuration not stated) , report its melting point.
### Response 178 to 181 °C

### Prompt Using the record for `O=c1[nH]c2cccc3c2n1CCC3` , report its melting point.
### Response 216 °C

### Prompt Using the record for `CC(=Cc1ccccc1)c1ccc2c(c1)C(C)(C)CCS2` , report its melting point.
### Response 81 to 83 °C

### Prompt Using the record for Nc1nc2cccnc2c2c1nc(CF)n2CC1(O)CCOC1 (configuration not stated) , report its melting point.
### Response 209 to 210 °C

### Prompt Using the record for `CCOC(=O)c1cc(-c2ccccc2)oc1-c1ccc(OC)c(OC)c1` , report its melting point.
### Response 68 °C

### Prompt Using the record for `COc1cc(CC#N)nc(N)n1` , report its melting point.
### Response 95 to 98 °C

### Prompt Using the record for `Cc1cccc(C)c1N(CCCC(=O)NCCCC(=O)O)C(=O)c1ccc(Cl)cc1` , report its melting point.
### Response 141 to 142 °C

### Prompt Using the record for `O=C(CCl)Nc1ccc2c(c1NC(=O)c1ccno1)C(=O)c1ccccc1C2=O` , report its melting point.
### Response 212 to 213 °C

### Prompt Using the record for `S=C(Nc1ccccc1)c1ccccn1` , report its melting point.
### Response 45 to 46 °C

### Prompt Using the record for CC(CC(=O)c1cccc(Cl)c1)C(=O)O (configuration not stated) , report its melting point.
### Response 100 to 102 °C

### Prompt Using the record for `CC(C)(c1ccc2ncccc2c1)n1nnc2ccc(-c3ccc(C(=O)NC4CC4)c(F)c3)nc21` , report its melting point.
### Response 156 to 159 °C

### Prompt Using the record for `C=CS(=O)(=O)CCCS(=O)(=O)C=C` , report its melting point.
### Response 60 to 63 °C

### Prompt Using the record for CN1c2ccc(C#CCOC3CCCCO3)cc2C(O)=C(C(=O)NCc2ccc(Cl)cc2)S1(=O)=O (configuration not stated) , report its melting point.
### Response 148 to 149 °C

### Prompt Using the record for `CS(=O)(=O)c1ccc(-c2ccccc2NC(=N)N2CCCCC2)cc1` , report its melting point.
### Response 128 to 129 °C

* * *

Each entry below lists one item and its recorded melting point value.
Numbers only; they are read as °C.

These recorded examples may help you get a feel for the data.
COC(=O)CCNC(=O)C(=Cc1ccccc1)CSC(C)=O    54
CC(OC(=O)C(F)(F)F)C1CCC2C3CC=C4CC(NC(=O)C(F)(F)F)CCC4(C)C3CCC12C (stereo not given)    140
CCOC(=O)c1cn(CC)c2nc(SC)ncc2c1=O    148
COc1ccc2ccc(NC(=O)c3ccco3)nc2n1    201

### Prompt Using the record for `NS(=O)(=O)c1ccccc1-c1ccc(Cn2c(-c3ccccc3)nc(Cl)c2C=O)cc1` , report its melting point.
### Response 215

* * *

readout type: melting point

These recorded examples may help you get a feel for the data.
O=C(NNC(=O)c1occ(-c2ccccc2)c1-c1ccccc1)c1ccoc1    180 to 183 °C
C=CCN(CC=C)NC(=S)Nc1ccc(F)cc1    73 to 74 °C
COc1ccc2c(Cc3ccc(OC4CCCCC4N(C)C)cc3)c(-c3ccc(OCCN4CCCC4)cc3)sc2c1 (configuration not stated)    58 to 61 °C
CCOC(=O)C1(c2ccccc2)CCC=CC1OC(C)=O (configuration not stated)    72 to 73 °C
CC(C)(C)OC(=O)NNCc1ccc(-c2ccccc2)cc1    84 to 85 °C
CC(=NO)c1ccc2c(c1)N(C(=O)OC(C)(C)C)CCC2    134 to 137 °C

### Prompt Using the record for `COC(=O)c1ccc2c(Cl)ccnc2c1` , report its melting point.
### Response 118 to 119 °C

### Prompt Using the record for `CSc1ccc(NC(=N)c2ccccc2)cc1` , report its melting point.
### Response 129 to 131 °C

### Prompt Using the record for O=C1Nc2ccc(F)cc2C(C#Cc2ccccc2)(C(F)(F)F)N1 (racemic) , report its melting point.
### Response 107 °C

### Prompt Using the record for `NC(=S)NN1CCc2cc(Cl)ccc21` , report its melting point.
### Response 199 to 200 °C

### Prompt Using the record for CCC1CC2=C3C(=CN(OC)C2OC)OCCC3C1 (configuration not stated) , report its melting point.
### Response 207 to 210 °C

### Prompt Using the record for `CNCc1ccc(Cc2nc3ccccc3[nH]2)cc1` , report its melting point.
### Response 157 to 160 °C

### Prompt Using the record for `Clc1ccc(-c2nc(Cl)c3c(n2)CCCC3)cc1` , report its melting point.
### Response 121 °C

### Prompt Using the record for `O=C(Nc1ccc2ccc(-c3ccc(F)cc3)nc2n1)c1ccc(C(F)(F)F)cc1` , report its melting point.
### Response 198 °C

### Prompt Using the record for COc1ccc(-c2nc3cc4c(cc3[nH]2)NC(=O)C4C(C)C)cc1 (configuration not stated) , report its melting point.
### Response 326 to 328 °C

### Prompt Using the record for CCCNC(=O)C(CCC(=O)NCCCOC(C)=O)NC(=O)C=Cc1ccco1 (configuration not stated) , report its melting point.
### Response 154 to 156 °C

### Prompt Using the record for `N#CNC(=N)Nc1cc(Cl)cc(Cl)c1` , report its melting point.
### Response 196 to 198 °C
